Biological target: ERα (Homo sapiens)
Construct: endogenous in cells; host or cells: MCF-7
Test: MCF-7 ERα degradation experiment (Human Total ERα ELISA, 4 h incubation)
Type: cell-based
Settings: MCF-7 cells, 4 h incubation at 37° C., ERα by ELISA; Max well 100 nM FUL, Min well 0.5% DMSO; read-out: Degradation of ERα by compounds DC50
Listing of entries alongside the reported DC50.
I'd appreciate it if you wrote the number followed by its unit.

Task: Given O=C1CC[C@H](N2Cc3cc(N4CCN(CC5CCN(c6ccc(C7=C(c8ccc(OC(F)(F)F)cc8)CCCc8cc(O)ccc87)cc6)CC5)CC4)ccc3C2=O)C(=O)N1 [Compound 25] , state its recorded DC50.
Result: 5.7 nM

Task: Which value of DC50 has been reported for O=C1CC[C@H](N2Cc3cc(N4CCN(CC5CCN(c6ccc(C7=C(c8ccccc8)CCCc8cc(C(=O)O)ccc87)cc6)CC5)CC4)ccc3C2=O)C(=O)N1 [Compound 12] in the records?
Result: 4.73 nM

Task: Given the entry Cc1ccc(C2=C(c3ccc(N4CCC(CN5CCN(c6ccc7c(c6)CN([C@H]6CCC(=O)NC6=O)C7=O)CC5)CC4)cc3)c3ccc(O)cc3CCC2)cc1 [Compound 11] , report its measured DC50.
Result: 1 nM

New cases:
Task: What does the data say about its DC50? Entry: O=C1CC[C@H](N2Cc3cc(N4CCN(CC5CCN(c6ccc(C7=C(c8ccc(F)nc8)CCCc8cc(O)ccc87)cc6)CC5)CC4)ccc3C2=O)C(=O)N1 [Compound 19]
Result: 2.1 nM

Task: Consider the compound shown here: O=C1CC[C@H](N2Cc3cc(N4CCN(CC5CCN(c6ccc(C7=C(c8ccc(O)cc8)CCCc8cc(O)ccc87)cc6)CC5)CC4)ccc3C2=O)C(=O)N1 [Compound 9] What is its recorded DC50?
Result: 0.4 nM

---

Target: ERα (Homo sapiens)
Construct: endogenous in cells; host or cells: MCF-7
Assay: MCF-7 ERα degradation experiment (Human Total ERα ELISA, 4 h incubation)
Type: cell-based
Settings: MCF-7 cells, 4 h incubation at 37° C., ERα by ELISA; Max well 100 nM FUL, Min well 0.5% DMSO; read-out: Degradation of ERα by compounds DC50
# maps each entry to its DC50
Record the value in nM, omitting the unit from your answer.

Below: 3 compounds and their reported DC50.
Task: Look up DC50: O=C1CC[C@H](N2Cc3cc(N4CCN(CC5CCN(c6ccc(C7=C(c8ccc(OC9CC9)cc8)CCCc8cc(O)ccc87)cc6)CC5)CC4)ccc3C2=O)C(=O)N1
Result: 1.7

Task: Bench note: what DC50 did O=C1CC[C@H](N2Cc3cc(N4CCN(CC5CCN(c6ccc(C7=C(c8cccnc8)CCCc8cc(O)ccc87)cc6)CC5)CC4)ccc3C2=O)C(=O)N1 show?
Result: 1.9

Task: What DC50 value was documented for this compound, CC(C)(O)c1ccc(C2=C(c3ccc(N4CCC(CN5CCN(c6ccc7c(c6)CN([C@H]6CCC(=O)NC6=O)C7=O)CC5)CC4)cc3)c3ccc(O)cc3CCC2)cn1 ?
Result: 1.4

Proceed to the following item.
Task: Look at this compound and give its reported DC50. COc1ccc2c(c1)CCCC(c1ccccc1)=C2c1ccc(N2CCC(CN3CCN(c4ccc5c(c4)CN([C@H]4CCC(=O)NC4=O)C5=O)CC3)CC2)cc1
Result: 8

---

List of DC50 values.
Molecular target: ERα (Homo sapiens)
Construct: endogenous in cells; host or cells: MCF-7
Sequence (P03372 1-595): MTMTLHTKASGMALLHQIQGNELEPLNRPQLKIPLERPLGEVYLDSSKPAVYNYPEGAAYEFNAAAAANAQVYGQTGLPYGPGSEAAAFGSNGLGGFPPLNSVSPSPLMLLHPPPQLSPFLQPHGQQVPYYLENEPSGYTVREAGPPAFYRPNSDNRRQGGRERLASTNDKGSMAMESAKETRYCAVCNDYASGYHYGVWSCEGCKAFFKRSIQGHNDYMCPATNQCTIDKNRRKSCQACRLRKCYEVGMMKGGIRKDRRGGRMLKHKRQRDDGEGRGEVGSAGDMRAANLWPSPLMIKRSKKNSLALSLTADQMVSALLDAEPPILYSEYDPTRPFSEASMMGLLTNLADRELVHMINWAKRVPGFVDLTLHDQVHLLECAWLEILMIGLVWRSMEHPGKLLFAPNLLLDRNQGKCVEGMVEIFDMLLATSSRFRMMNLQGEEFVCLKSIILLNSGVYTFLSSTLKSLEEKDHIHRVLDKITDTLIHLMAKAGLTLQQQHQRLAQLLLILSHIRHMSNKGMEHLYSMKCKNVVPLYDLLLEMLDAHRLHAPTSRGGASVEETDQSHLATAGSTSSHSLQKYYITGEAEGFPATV
Assay: MCF-7 ERα degradation experiment (Human Total ERα ELISA, 4 h incubation)
Assay type: cell-based
Details: MCF-7 cells, 4 h incubation at 37° C., ERα by ELISA; Max well 100 nM FUL, Min well 0.5% DMSO; read-out: Degradation of ERα by compounds DC50

# example entries with known answers
Task: Entry under review: O=C1CC[C@H](N2Cc3cc(N4CCN(CCC5CCN(c6ccc(C7=C(c8ccccc8)CCCc8cc(O)ccc87)cc6)CC5)CC4)ccc3C2=O)C(=O)N1 . Reported DC50?
Result: 1.5 nM

Task: Name the reported DC50 value associated with the compound O=C1CCC(N2Cc3cc(N4CCN(CC5CCN(c6ccc(C7=C(c8ccc(Cl)cc8Cl)CCCc8cc(C(=O)O)ccc87)cc6)CC5)CC4)ccc3C2=O)C(=O)N1 (centres unmarked)
Result: 5.8 nM

Task: Need DC50, item O=C1CC[C@H](N2Cc3cc(N4CCN(CC5CCN(c6ccc(C7=C(c8ccc(C9CC9)nc8)CCCc8cc(O)ccc87)cc6)CC5)CC4)ccc3C2=O)C(=O)N1
Result: 9.4 nM

Task: Please give the measured DC50 for this compound: O=C1CC[C@H](N2Cc3cc(N4CCN(CC5CCN(c6ccc(C7=C(c8ccc(C(F)(F)F)nc8)CCCc8cc(O)ccc87)cc6)CC5)CC4)ccc3C2=O)C(=O)N1
Result: 1.7 nM

Task: What does the record list as DC50 for COc1ccc2c(c1)OCCC(c1ccccc1)=C2c1ccc(N2CCC(CN3CCN(c4ccc5c(c4)CN([C@H]4CCC(=O)NC4=O)C5=O)CC3)CC2)cc1 ?
Result: 5.7 nM

Task: I would be grateful if you could share the reported DC50 for O=C1CC[C@H](N2Cc3cc(N4CCN(CC5CCN(c6ccc(C7=C(c8ccccc8)CCCc8cc(O)ccc87)cc6)CC5)CC4)ccc3C2=O)C(=O)N1 .
Result: 1.1 nM

Continuing:
Task: Need DC50 of Cc1ccc(C2=C(c3ccc(N4CCC(CN5CCN(c6ccc7c(c6)CN([C@H]6CCC(=O)NC6=O)C7=O)CC5)CC4)cc3)c3ccc(O)cc3CCC2)cn1 , thanks.
Result: 7.7 nM

Task: Field request: DC50 | item: O=C1CC[C@H](N2Cc3cc(N4CCN(CC5CCN(c6ccc(C7=C(c8ccc(Cl)cc8)CCCc8cc(O)ccc87)cc6)CC5)CC4)ccc3C2=O)C(=O)N1
Result: 1.8 nM

Task: Using the record for O=C1CC[C@H](N2Cc3cc(N4CCN(CC5CCN(c6ccc(C7=C(c8ccncc8)CCCc8cc(O)ccc87)cc6)CC5)CC4)ccc3C2=O)C(=O)N1 , report its DC50.
Result: 0.9 nM

Task: Looking for the measured DC50 of Cc1ccc(C2=C(c3ccc(N4CCC(CN5CCN(c6ccc7c(c6)CN([C@H]6CCC(=O)NC6=O)C7=O)CC5)CC4)cc3)c3ccc(O)cc3CCC2)c(C)n1 , can you help?
Result: 2.4 nM

Task: Which value of DC50 has been reported for O=C1CCC(N2Cc3cc(N4CCN(CCCCCOc5ccc(C6=C(c7ccccc7)CCCc7cc(O)ccc76)cc5)CC4)ccc3C2=O)C(=O)N1 (centres unmarked) in the records?
Result: 0.84 nM

---

The entries below come with measured DC50 values attached.
Molecular target: ERα (Homo sapiens, UniProt P03372)
Construct: endogenous in cells; host or cells: MCF-7
Assay: MCF-7 ERα degradation experiment (Human Total ERα ELISA, 4 h incubation)
Type: cell-based
Conditions: MCF-7 cells, 4 h incubation at 37° C., ERα by ELISA; Max well 100 nM FUL, Min well 0.5% DMSO; read-out: Degradation of ERα by compounds DC50
Please reply with the bare figure in nM and do not write the unit itself.

Some solved entries appear below for comparison.
Task: I am curious: what DC50 value has been reported for COc1ccc2c(c1)CCCC(c1ccc(F)cc1)=C2c1ccc(N2CCC(CN3CCN(c4ccc5c(c4)CN([C@H]4CCC(=O)NC4=O)C5=O)CC3)CC2)cc1 ?
Result: 8.3

Task: Requested read-out: DC50. Entry: O=C1CCC(N2Cc3cc(N4CCN(CC5CCN(c6ccc(C7=C(c8ccccc8)CCCc8cc(O)ccc87)cc6)CC5)CC4)ccc3C2=O)C(=O)N1 (stereo not drawn)
Result: 2.69

Task: Can you look up the measured DC50 of O=C1CC[C@H](N2Cc3cc(N4CCN(CCC5CCN(c6ccc(C7=C(c8ccccc8)CCCc8cc(C(=O)O)ccc87)cc6)CC5)CC4)ccc3C2=O)C(=O)N1 for me?
Result: 4.47

Task: Consider the compound O=C1CC[C@H](N2Cc3cc(N4CCN(CC5CCN(c6ccc(C7=C(c8ccc(OC(F)F)cc8)CCCc8cc(O)ccc87)cc6)CC5)CC4)ccc3C2=O)C(=O)N1 and give its measured DC50.
Result: 0.7

Task: Returns the measured DC50 for the input compound. Input: O=C1CC[C@H](N2Cc3cc(N4CCN(CC5CCN(c6ccc(C7=C(c8ccc(F)cc8)CCCc8cc(O)ccc87)cc6)CC5)CC4)ccc3C2=O)C(=O)N1
Result: 1

Continuing:
Task: For the compound shown here, Cc1nn(C)cc1C1=C(c2ccc(N3CCC(CN4CCN(c5ccc6c(c5)CN([C@H]5CCC(=O)NC5=O)C6=O)CC4)CC3)cc2)c2ccc(O)cc2CCC1 , give the reported DC50.
Result: 4.6
